molecular target: HLA-B*2705 expressed on C1R-neo cells (human, UniProt P01889 25-362; P61769 21-119); test: ECL cell binding, C1R-neo B*2705 cells, pH 6.0
REPORTED_METRIC: max RLU (RLU)
Respond with the bare value in RLU.

Query: Fill blank: measured max RLU of the binder H4H2499N12 (antibody, V domains shown) VH: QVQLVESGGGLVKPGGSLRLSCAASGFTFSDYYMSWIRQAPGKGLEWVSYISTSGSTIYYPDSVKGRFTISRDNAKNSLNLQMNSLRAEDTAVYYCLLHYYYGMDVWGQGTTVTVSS VL: EIVLTQSPATLSLSPGERAPLSCRASQSVSSYLAWYQQKPGQPPRLLIYDASNRATGIPARFSGSGSGTDFTLTISSLEPEDFAVYYCQQRHHWPWHFGQGTKVEIK is ____.
Result: 24300

Query: Fill blank: measured max RLU of the binder H4H2499N17 (antibody, V domains shown) VH: QVQLVESGGGLVKPGGSLRLSCAASGFTFSDYYMSWIRQAPGKGLEWVSYISTSGSTIYYPDSVKGRFTISRDNAKNSLNLQMNSLRAEDTAVYYCLLHHYYGHDHWGQGTTVTVSS VL: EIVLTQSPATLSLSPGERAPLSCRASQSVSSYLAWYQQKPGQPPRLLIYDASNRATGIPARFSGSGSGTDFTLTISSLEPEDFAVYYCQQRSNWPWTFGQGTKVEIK is ____.
Result: 16900
